Cited source: PubChem BioAssay AID1159580

- Measurement Protocol: chemical genetic growth profiling, strain panel (AID 1159580);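 note: tested at 20 µM; growth read once vehicle control cultures reached saturation at 30 °C; 1 = growth at the plate median or of vehicle wells; lower values mean less growth of the strain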
- Measurement Context: S. cerevisiae deletion strains, growth OD, locus YLR039C, strain RIC1, stronger effect = lower value
In all, about 5,500 compounds went through this assay and about 2,000 (36%) were called active. Not shown: some 18% with an inconclusive outcome. The list shows a part of the results.
Recorded Endpoint: normalized growth

Below: 3 compounds and their reported normalized growth.
INSERT INTO results (compound, endpoint_result) VALUES
  ('COc1ccc2c(=O)cc(-c3ccccc3OC)oc2c1', '0.642 (active)'),
  ('COc1cc([C@@H]2c3cc4c(cc3C(O[C@@H]3O[C@@H]5CO[C@@H](c6cccs6)OC5[C@H](O)[C@H]3O)C3COC(=O)[C@@H]32)OCO4)cc(OC)c1O (stereo partly specified)', '1.01 (inactive)'),
  ('O=c1oc2ccccc2c(O)c1Cc1c(O)c2ccccc2oc1=O', '1.01 (inactive)');

// batch mode: one normalized growth value per listed entry
1. O=c1c2ccccc2oc2ccc(O)cc12
2. COc1cccc(-c2cc(=O)c3ccc(OC)cc3o2)c1
3. Cc1coc2ccccc2c1=O

1: 0.49 (active); 2: 0.983 (inactive); 3: 1.01 (inactive)

====

- Measurement Protocol: chemical genetic growth profiling, strain panel (AID 1159580)
- Measurement Context: S. cerevisiae deletion strains, growth OD, locus YGL253W, strain hxk2, stronger effect = lower value
In all, about 5,500 compounds went through this assay and about 2,000 (36%) were called active. Roughly 18% stayed inconclusive and do not appear here. The list shows a part of the results.
Recorded Endpoint: normalized growth
Answers are plain numbers.

Below: 2 compounds and their reported normalized growth.
INSERT INTO measurements (compound, endpoint_result) VALUES
  ('CN(C)CCC=C1c2ccccc2C=Cc2ccccc21', 0.988),
  ('C=CCCCCCCCCCCCC(O)CC(O)CO (stereo unspecified)', 1);

// batch mode: one normalized growth value per listed entry
1. C[N+]1(CCCCC[N+]2(C)CCCC2)CCCC1
2. C=C1C2CC[C@@]3(C)[C@H](c4ccoc4)OC(=O)C[C@]13O[C@H]1CC(=O)C(C)(C)[C@H](C(O)C(=O)OC)[C@@]21C (stereo partly specified)
3. CC[C@]12C=CCN3CC[C@@]4(c5ccc(OC)cc5N(C)C4[C@@](O)(C(=O)OC)[C@@H]1OC(C)=O)[C@@H]32 (stereo partly specified)
4. NCC(=O)CCC(=O)O

1. 0.987
2. 0.99
3. 1.03
4. 1.01

====

- Measurement Protocol: chemical genetic growth profiling, strain panel (AID 1159580)
- Measurement Context: S. cerevisiae deletion strains, growth OD, locus YCL029C, strain bik1
The campaign covered roughly 5,500 compounds. About 2,000 (36%) were called active. Another 18% or so got no clear call; they are omitted. Cut-off read from the data, not from the text of the source: active = normalized growth mostly below about 0.91 (no sharp cut-off); inconclusive = no clear call, values can overlap the other calls; inactive = mostly above about 0.92. Some of the results follow.
The reply should be one of these categories: 1 = active, -1 = inactive

Example cases with answers are listed next.
INSERT INTO assay_data (molecule, label_class) VALUES
  ('COc1cc2c3cc1Oc1cc(ccc1O)C[C@@H]1c4c(cc(OC)c(O)c4Oc4ccc(cc4)C[C@@H]3N(C)CC2)CC[N+]1(C)C', -1),
  ('CC(=O)Oc1cc(-c2coc3cc(OC(C)=O)c(OC(C)=O)c(OC(C)=O)c3c2=O)cc(OC(C)=O)c1OC(C)=O', 1);

Called result for CC(=O)O[C@@H]1CC2C(C)(C)C(=O)CC[C@]2(C)C2CC[C@@]3(C)[C@H](c4ccoc4)OC(=O)C4OC43[C@@]21C (stereo partly drawn)
-1

Called result for COc1ccc(-c2coc3cc(O)cc(O)c3c2=O)cc1
1

Called result for CC(=O)N(O)CCCCCNC(=O)CCC(=O)N(O)CCCCCNC(=O)CCC(=O)N(O)CCCCCN
-1

Called result for CC(=O)O[C@@H]1CC2C(C)(C)CCC(=O)[C@]2(C)C2CC[C@@]3(C)[C@H](c4ccoc4)OC(=O)C4OC43[C@@]21C (stereo partly drawn)
-1

Called result for COc1cccc(-c2cc(=O)c3cc(OC)ccc3o2)c1
1

Called result for COc1ccc(-c2cc(=O)c3c(OC(C)=O)cc(OC(C)=O)cc3o2)cc1
-1

====

- Measurement Protocol: chemical genetic growth profiling, strain panel (AID 1159580);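 note: tested at 20 µM; growth read once vehicle control cultures reached saturation at 30 °C; 1 = growth at the plate median or of vehicle wells; lower values mean less growth of the strain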
- Measurement Context: S. cerevisiae deletion strains, growth OD, locus YNL233W, strain BNI4, stronger effect = lower value
The whole screen tested about 5,500 compounds, of which about 2,000 (36%) were called active. Not shown: some 18% with an inconclusive outcome. The list shows a part of the results.
met if normalized growth is below 1. not met if not; exact matches included in not met.

INSERT INTO measurements (query_smiles, label_class) VALUES
  ('O=c1c2ccccc2[se]n1-c1ccccc1', 'met'),
  ('COc1cc2c3cc1Oc1cc(ccc1O)C[C@@H]1c4c(cc(OC)c(O)c4Oc4ccc(cc4)C[C@@H]3N(C)CC2)CC[N+]1(C)C', 'not met');

Is 1 strictly greater than the compound's reported normalized growth? compound: Nc1ccc(C(=O)Oc2ccccc2)c(O)c1
met

Is 1 strictly greater than the compound's reported normalized growth? compound: CC(=O)Nc1ccc(O)cc1
not met

====

- Measurement Protocol: chemical genetic growth profiling, strain panel (AID 1159580);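 note: tested at 20 µM; growth read once vehicle control cultures reached saturation at 30 °C; 1 = growth at the plate median or of vehicle wells; lower values mean less growth of the strain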
- Measurement Context: S. cerevisiae deletion strains, growth OD, locus YJL157C, strain FAR1, stronger effect = lower value
Hit rate of the full screen: of about 5,500 compounds, about 2,000 (36%) were called active. Inconclusive results (about 18%) are left out. The list shows a part of the results.
Recorded Endpoint: normalized growth
Numbers only.

INSERT INTO assay_data (compound, endpoint_result) VALUES
  ('O=C1c2ccccc2O[C@@H](c2ccccc2)[C@@H]1NCc1ccccc1', 0.835),
  ('COc1ccc(C2CC(c3ccccc3)=Nc3ccccc3S2)cc1OC (stereo unspecified)', 0.968),
  ('Clc1ccccc1N/N=C\Cc1nnnn1-c1ccccc1', 0.893),
  ('Cc1nc(-c2ccc(C(F)(F)F)cn2)[nH]c(=O)c1Cl', 0.813),
  ('Cc1ccc2c(c1)CCCN2CC(=O)N(c1ccccc1)C1CCCCC1', 0.944),
  ('C#Cc1cccc(N=Cc2cc(Cl)cc(Br)c2O)c1', 0.0902);

// batch mode: one normalized growth value per listed entry
1. O=C1c2ccccc2O[C@@H](c2ccccc2)[C@@H]1NC1CCCCC1
2. N#CCC(=O)c1cccc(CSc2ccccc2Cl)c1
3. N=c1ccc2nc3c(Cl)c4c(c(Cl)c3oc-2c1S(=O)(=O)O)Nc1ccc(N)c(S(=O)(=O)O)c1O4

1: 0.849; 2: 0.42; 3: 0.994

// batch mode: one normalized growth value per listed entry
1. Cc1csc2ncnc(N/N=C\c3ccccc3Cl)c12
2. CN(C(=O)N(C)c1ccc(Cl)cc1C(=O)c1ccccc1Cl)c1ccc(Cl)cc1C(=O)c1ccccc1Cl

1: 0.947; 2: 0.51

====

- Measurement Protocol: chemical genetic growth profiling, strain panel (AID 1159580);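 note: tested at 20 µM; growth read once vehicle control cultures reached saturation at 30 °C; 1 = growth at the plate median or of vehicle wells; lower values mean less growth of the strain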
- Measurement Context: S. cerevisiae deletion strains, growth OD, locus YDL040C, strain nat1, stronger effect = lower value
Among all 5,500 compounds or so, about 2,000 (36%) were called active. Inconclusive results (about 18%) are left out. This is one part of the list.
Recorded Endpoint: normalized growth
Numbers only.

Below: 10 compounds and their reported normalized growth.
INSERT INTO results (compound, recorded_endpoint, endpoint_result) VALUES
  ('O=c1c(-c2ccccc2)coc2cc(O)cc(O)c12', 'normalized growth', 1.01),
  ('COc1ccc(-c2coc3cc(OC(C)=O)cc(OC(C)=O)c3c2=O)cc1', 'normalized growth', 0.983),
  ('O=c1[nH]c2cc(Cl)c(Cl)cc2[nH]c1=O', 'normalized growth', 0.994),
  ('Cc1cc2cc3c(C)cc(=O)oc3c(C)c2o1', 'normalized growth', 1),
  ('CC(=O)O.CC(=O)O.[Cd]', 'normalized growth', 0.589),
  ('CC(=O)OCC(=O)[C@@]1(O)CCC2C3CC[C@@H]4C[C@H](O)CC[C@]4(C)C3C(=O)C[C@@]21C (stereo partly specified)', 'normalized growth', 1.02),
  ('CCC(CCC(C)[C@H]1CCC2C3CC=C4C[C@@H](O)CC[C@]4(C)C3CC[C@@]21C)C(C)C (stereo partly specified)', 'normalized growth', 1.02),
  ('Cn1c(=O)c2[nH]c(C3CCCC3)nc2n(C)c1=O', 'normalized growth', 0.998),
  ('CC(=O)[C@H]1CCC2C3CC=C4C[C@@H](O)CC[C@]4(C)C3CC[C@@]21C (stereo partly specified)', 'normalized growth', 1.01),
  ('CCCCOc1cc(CC2CNC(=O)N2)ccc1OC (stereo unspecified)', 'normalized growth', 0.999);

Now examine the next entry.
Please look up its normalized growth: CC(C)(Oc1ccc(Cl)cc1)C(=O)O
0.996
